// provenance: patent EP1673354B1

# system: human A2a adenosine receptor (Homo sapiens)
# Construct: purchased PerkinElmer RB-HA2a; host or cells: HEK293 cell plasma membrane
# assay-explanation: Ligand binding assay for adenosine A2a receptor ([3H]CGS21680, HEK293 plasma membrane)
# test-parameters: radioligand [3H]CGS21680, HEK293 membranes, room temperature 2 hours; read-out: Ki (nM) A2a binding
# Experimental: Ligand Binding Assay for Adenosine A2a Receptor Ligand binding assay of adenosine A2a receptor was performed using plasma membrane of HEK293 cells containing human A2a adenosine receptor (PerkinElmer, RB-HA2a) and radioligand [^3H]CGS21680 (PerkinElmer, NET1021). […] Nonspecific binding was determined by 80 mM NECA. […] Plates were counted on Packard Topcount for [^3H]. Data was analyzed in Microsoft Excel and GraphPad Prism programs.
Categories are assigned from the measured Ki using these intervals: LOW (below 6 nM), MEDIUM (6 nM to below 60 nM), HIGH (60 nM or more)

Previously resolved entries follow.
molecule	group-label
CSc1nc(N)nc2c1C(=O)c1ccccc1-2	HIGH
Nc1nc(-c2ccccc2)c2c(n1)-c1cccc(CN3CCCC(CO)C3)c1C2=O (centres unmarked)	MEDIUM
CCCn1cc(-c2nc(N)nc3c2C(=O)c2ccccc2-3)ccc1=O	HIGH
Nc1nc(-c2ccccc2)c2c(c1C(=O)OCCN1CCCC1)-c1ccccc1C2=O	HIGH
CSc1nc(N)nc2c1C(=O)c1c(N)cccc1-2	HIGH

Let's switch to this molecule now.
Which class does CN(C)CCNC(=O)c1c(N)nc(-c2ccco2)c2c1-c1ccccc1C2=O fall in?
MEDIUM

* * *

# system: Adenosine A1 receptor (Homo sapiens)
# Sequence (P30542 1-326): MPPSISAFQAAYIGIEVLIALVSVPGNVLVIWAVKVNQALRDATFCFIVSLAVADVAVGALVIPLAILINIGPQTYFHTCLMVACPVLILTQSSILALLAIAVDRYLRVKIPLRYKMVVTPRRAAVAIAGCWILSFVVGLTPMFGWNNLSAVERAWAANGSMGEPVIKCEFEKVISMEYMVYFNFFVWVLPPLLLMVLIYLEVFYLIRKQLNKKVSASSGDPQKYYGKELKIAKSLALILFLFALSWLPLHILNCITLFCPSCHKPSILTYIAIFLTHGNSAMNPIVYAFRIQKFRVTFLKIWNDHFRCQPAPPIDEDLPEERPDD
# assay-explanation: A1 antagonist function (no method described)
# Format: cell-based
The label MET is reserved for Ki strictly under 30 nM; NOT MET covers values equal to or above it.

C=CCCc1nc(N)c(C#N)c2c1C(=O)c1ccccc1-2 NOT MET
Nc1nc(-c2ccccc2)c2c(n1)-c1cccc(CN3CCCCC3)c1C2=O NOT MET

Criterion: Ki strictly below 30 nM. Is it met by N#Cc1c(N)nc(-c2cccs2)c2c1-c1ccccc1C2=O ?
MET

Decide: Ki of COC(=O)CN(C)Cc1cccc2c1C(=O)c1c(-c3ccccc3)nc(N)nc1-2 strictly below 30 nM?
MET

Given COc1cccc(-c2nc(N)nc3c2C(=O)c2ccccc2-3)c1 , is recorded Ki strictly lower than 30 nM?
MET

* * *

# system: Adenosine A1 receptor (Homo sapiens)
# assay-explanation: A1 antagonist function (no method described)
# Assay type: cell-based
experimental-readout: Ki

Known results for molecules:
COc1ccc(-c2nc(N)nc3c2C(=O)c2ccccc2-3)cc1 5.32 nM
C[C@H](O)[C@@H](O)c1cccc2c1-c1nc(N)nc(-c3ccccc3)c1C2=O 0.021 nM
CSc1nc(N)nc2c1C(=O)c1c(N)cccc1-2 189 nM
Cc1ccc(-c2nc(N)nc3c2C(=O)c2ccccc2-3)o1 0.016 nM

Lab note: next molecule to report on.
Any idea what Ki was measured for Nc1nc(-c2ccc(F)c(F)c2)c2c(n1)-c1ccccc1C2=O ?
5.86 nM

* * *

# system: human A2a adenosine receptor (Homo sapiens, UniProt P29274)
# Construct: purchased PerkinElmer RB-HA2a; host or cells: HEK293 cell plasma membrane
# Sequence (P29274 whole entry): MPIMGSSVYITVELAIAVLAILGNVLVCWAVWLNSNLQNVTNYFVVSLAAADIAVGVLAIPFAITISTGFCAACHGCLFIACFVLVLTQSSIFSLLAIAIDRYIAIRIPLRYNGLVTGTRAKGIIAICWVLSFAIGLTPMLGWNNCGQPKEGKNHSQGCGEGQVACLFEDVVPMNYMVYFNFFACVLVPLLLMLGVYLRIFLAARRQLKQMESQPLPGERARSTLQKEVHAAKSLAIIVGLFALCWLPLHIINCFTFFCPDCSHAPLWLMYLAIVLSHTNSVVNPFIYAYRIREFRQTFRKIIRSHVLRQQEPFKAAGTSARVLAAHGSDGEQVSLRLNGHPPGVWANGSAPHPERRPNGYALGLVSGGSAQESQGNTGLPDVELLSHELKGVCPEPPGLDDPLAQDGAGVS
# assay-explanation: Ligand binding assay for adenosine A2a receptor ([3H]CGS21680, HEK293 plasma membrane)
# test-parameters: radioligand [3H]CGS21680, HEK293 membranes, room temperature 2 hours; read-out: Ki (nM) A2a binding
Cut-off 30 nM on Ki: below means yes (1), at or above means no (0).

Examples from the recorded data:
molecule	system	group-label
Nc1nc(-c2ccc(F)c(F)c2)c2c(n1)-c1ccccc1C2=O [Compound 28]	human A2a adenosine receptor (Homo sapiens, UniProt P29274)	no (0)
Nc1nc(-c2ccco2)c2c(n1)-c1c(Cl)ccc(Cl)c1C2=O [Compound 26]	human A2a adenosine receptor (Homo sapiens, UniProt P29274)	no (0)
CC(CN(C)C)NC(=O)c1c(N)nc(-c2ccco2)c2c1-c1ccccc1C2=O (stereo not drawn) [Compound 78]	human A2a adenosine receptor (Homo sapiens, UniProt P29274)	yes (1)
CN(C)CCN(C)Cc1cccc2c1C(=O)c1c(-c3ccccc3)nc(N)nc1-2 [Compound 49]	human A2a adenosine receptor (Homo sapiens, UniProt P29274)	no (0)
CN1CCN(Cc2cccc3c2C(=O)c2c(-c4ccccc4)nc(N)nc2-3)CC1 [Compound 50]	human A2a adenosine receptor (Homo sapiens, UniProt P29274)	no (0)

Given Nc1nc(-c2ccco2)c2c(c1C(=O)O)-c1ccccc1C2=O [Compound 69] , is recorded Ki strictly lower than 30 nM?
no (0)

Confirm or reject: Ki of CC(C)(C)OC(=O)NC1CCN(Cc2cccc3c2C(=O)c2c(-c4ccccc4)nc(N)nc2-3)CC1 [Compound 60] lies strictly below 30 nM
no (0)

In the record for CN(C)CCOC(=O)c1c(N)nc(-c2ccccc2)c2c1-c1ccccc1C2=O [Compound 81] , is Ki less than 30 nM?
no (0)

* * *

# system: human A2a adenosine receptor (Homo sapiens)
# Construct: purchased PerkinElmer RB-HA2a; host or cells: HEK293 cell plasma membrane
# assay-explanation: Ligand binding assay for adenosine A2a receptor ([3H]CGS21680, HEK293 plasma membrane)
# test-parameters: read-out: Ki (nM) A2a binding; radioligand [3H]CGS21680, HEK293 membranes, room temperature 2 hours
experimental-readout: Ki (nM)
Answers are plain numbers, in nM.

For human A2a adenosine receptor (Homo sapiens), provide Ki of C[C@H](O)[C@@H](O)c1cccc2c1C(=O)c1c(-c3ccccc3)nc(N)nc1-2 please.
3.55

* * *

# system: human adenosine A2a receptors (Homo sapiens, UniProt P29274)
# Construct: expressed in transfected cells; host or cells: CHO-K1 cells with cAMP-inducible beta-galactosidase reporter gene
# Sequence (P29274 whole entry): as above
# assay-explanation: Adenosine A2a receptor functional assay, antagonist mode (cAMP-inducible beta-galactosidase reporter, 50 nM NECA)
# Assay type: cell-based
# test-parameters: CHO-K1 cells, read-out: Ki (nM) A2a antagonist function
I'd appreciate it if you could supply log10(Ki) values for the items below.
The figures below represent log10 of Ki, where Ki is stated in nM.

Consider the following illustrative entries.
compound	experimental-readout	observed-measurement
COC(=O)C1CCCCN1Cc1cccc2c1C(=O)c1c(-c3ccccc3)nc(N)nc1-2 (stereo not drawn) [Compound 54]	log10(Ki)	0.50
N#Cc1c(N)nc(-c2ccc(F)cc2)c2c1-c1ccccc1C2=O [Compound 71]	log10(Ki)	0.53
C[C@H](O)[C@@H](O)c1cccc2c1C(=O)c1c(-c3ccccc3)nc(N)nc1-2 [Compound 32]	log10(Ki)	-0.20
Nc1nc(-c2ccco2)c2c(n1)-c1c(N)cccc1C2=O [Compound 21]	log10(Ki)	-1.28
Nc1nc(-c2ccco2)c2c(n1)-c1cccc(O)c1C2=O [Compound 17]	log10(Ki)	1.83

Consider the following items and state reported log10(Ki) for each.
1. COC(=O)CN(C)Cc1cccc2c1C(=O)c1c(-c3ccccc3)nc(N)nc1-2 [Compound 56]
2. CN1CCN(CCCOC(=O)c2c(N)nc(-c3ccccc3)c3c2-c2ccccc2C3=O)CC1 [Compound 83]
3. Nc1nc(-c2ccccc2)c2c(n1)-c1cccc(CN3CCCCC3)c1C2=O [Compound 53]
4. Nc1nc(-c2ccccc2)c2c(c1C(=O)OCCCN1CCOCC1)-c1ccccc1C2=O [Compound 84]
5. Nc1nc(-c2ccco2)c2c(n1)-c1ccc(C(F)(F)F)cc1C2=O [Compound 22]
6. Nc1nc(-c2ccccc2)c2c(n1)-c1cccc(CN3CCCC(CO)C3)c1C2=O (stereo not drawn) [Compound 57]
7. N#Cc1c(N)nc(-c2cccs2)c2c1-c1ccccc1C2=O [Compound 72]

1: 0.83; 2: 1.87; 3: 1.15; 4: 1.39; 5: -1.26; 6: 1.20; 7: 0.40

* * *

# system: Adenosine A1 receptor (Homo sapiens, UniProt P30542)
# assay-explanation: A1 antagonist function (no method described)
# Type: cell-based
Classification by Ki | ranges: bottom bin = under 5 nM, middle bin = from 5 nM up to 30 nM, top bin = 30 nM and over

Completed entries (count: 6):
compound	group-label
N#Cc1c(N)nc(C2CCCCC2)c2c1-c1ccccc1C2=O [Compound 95]	top bin
CN(C)CCCOC(=O)c1c(N)nc(-c2ccccc2)c2c1-c1ccccc1C2=O [Compound 87]	top bin
Nc1nc(-c2ccc(F)cc2)c2c(n1)-c1ccccc1C2=O [Compound 38]	middle bin
CN1CCCC1COC(=O)c1c(N)nc(-c2ccccc2)c2c1-c1ccccc1C2=O (stereo not drawn) [Compound 90]	top bin
Nc1nc(Nc2ccccc2)c2c(n1)-c1ccccc1C2=O [Compound 43]	bottom bin
Nc1nc(-c2ccncc2)c2c(n1)-c1ccccc1C2=O [Compound 6]	middle bin

# bin lookup: classify N#Cc1c(N)nc(-c2ccccc2)c2c1-c1ccccc1C2=O [Compound 64] by its Ki
bottom bin

Please let me know in which category the item CN(C)CCN(C)Cc1cccc2c1C(=O)c1c(-c3ccccc3)nc(N)nc1-2 [Compound 49] belongs.
top bin

Could you tell me which band N#Cc1c(N)nc(-c2cccnc2)c2c1-c1ccccc1C2=O [Compound 68] belongs to?
top bin
